- test.details: Half-life determined by HPLC ([…])
- Type: ADME
Rule: half-life below 20 h gives fulfilled, anything at or above gives not fulfilled.

Take a look at these entries with their results.
>  <molecule>
C/C1=C\[C@@H](O)C(=O)/C=C/C=Cc2csc(n2)[C@@H](C)N2C(=O)C[C@@]([C@@](C)(O)C(=O)SCc3oc(=O)oc3C)(CC1)[S+]2[O-] (stereo partly specified)

>  <assigned.class>
fulfilled

$$$$
>  <molecule>
COC1(O[C@@H]2/C=C(\C)CC[C@]3([C@@](C)(O)C(=O)SCc4oc(=O)oc4C)CC(=O)N([C@H](C)c4nc(cs4)/C=C/C=C/C2=O)[S+]3[O-])CCOCC1 (stereo partly specified)

>  <assigned.class>
fulfilled

$$$$
>  <molecule>
COCO[C@@H]1/C=C(\C)CC[C@]2([C@@](C)(O)C(=O)SCc3oc(=O)oc3C)CC(=O)N([C@H](C)c3nc(cs3)C=C/C=C/C1=O)[S+]2[O-] (stereo partly specified)

>  <assigned.class>
not fulfilled

$$$$
>  <molecule>
C/C1=C\[C@@H](O[C@@H]2CCCCO2)C(=O)/C=C/C=C/c2csc(n2)[C@@H](C)N2C(=O)C[C@@]([C@@](C)(O)C(=O)SCc3oc(=O)oc3C)(CC1)[S+]2[O-] (stereo partly specified)

>  <assigned.class>
not fulfilled

$$$$
>  <molecule>
CC(=O)O[C@@H]1/C=C(\C)CC[C@]2([C@@](C)(O)C(=O)SCc3oc(=O)oc3C)CC(=O)N([C@H](C)c3nc(cs3)C=C/C=C/C1=O)[S+]2[O-] (stereo partly specified)

>  <assigned.class>
not fulfilled

$$$$

Query: Please state whether half-life is below 20 h for C/C1=C\[C@@H](O)C(=O)/C=C/C=C\c2csc(n2)[C@@H](C)NC(=O)C[C@@]2(CC1)[S+]([O-])SC(=O)[C@]2(C)O (stereo partly specified)
Result: fulfilled
